Listing of recorded Infiltration anaesthesia activity with respect to lidocaine by entry.
Tested on: response to skin puncture
assayName: Anaesthesia by infiltration (subcutaneous, back puncture)
Assay type: in vivo, guinea pigs
runConditions: lidocaine = 1
measurementName: Infiltration anaesthesia activity with respect to lidocaine

Cc1cccc(C)c1NC(=O)c1cccc(CN2CCCCC2)c1 : 2.08
Cc1cccc(C)c1NC(=O)c1ccc(CN2CCOCC2)cc1 : 0.33
Cc1cccc(C)c1NC(=O)c1ccccc1CN1CCCCC1 : 3.57
Cc1cccc(C)c1NC(=O)c1cccc(CN2CCCC2)c1 : 0.09

----------
List of Aconitine i.v. necessary to induce ventricular arrhythmia values.
System: aconitine-induced ventricular arrhythmia
assayName: Anti-arrhythmic activity, aconitine infusion
Type: in vivo, Wistar rats
runConditions: 3.0 mg/kg i.v., 3 min before aconitine 10 mcg/kg/min
measurementName: Aconitine i.v. necessary to induce ventricular arrhythmia (µg/kg)

CCN(CC)Cc1ccccc1C(=O)Nc1c(C)cccc1C [Compound 1] : 69
CCN(CC)Cc1ccccc1C(=O)Nc1c(C)cccc1Cl [Compound 13] : 67
CCN(CC)Cc1ccc(C(=O)Nc2c(C)cccc2C)cc1 [Compound 3] : 39
CCN(CC)Cc1ccccc1C(=O)Nc1c(C)cccc1C(=O)OC [Compound 14] : 81
CCN(CC)Cc1cccc(C(=O)Nc2c(C)cccc2C)c1 [Compound 2] : 77

----------
Test system: aconitine-induced ventricular arrhythmia
assayName: Anti-arrhythmic activity, aconitine infusion
Format: in vivo, Wistar rats
runConditions: 1.0 mg/kg i.v., 3 min before aconitine 10 mcg/kg/min
Consider the cut-off 60 µg/kg. If the recorded Aconitine i.v. necessary to induce ventricular arrhythmia is strictly smaller, the label is Satisfied; if not, the label is Not satisfied.

CCN(CC)Cc1ccccc1C(=O)Nc1c(C)cccc1Cl [Compound 13] : Not satisfied
CCN(CC)Cc1cccc(C(=O)Nc2c(C)cccc2C)c1 [Compound 2] : Satisfied
CCN(CC)Cc1ccccc1C(=O)Nc1c(C)cccc1C [Compound 1] : Not satisfied
CCN(CC)Cc1ccc(C(=O)Nc2c(C)cccc2C)cc1 [Compound 3] : Satisfied

----------
System: Swiss rats
assayName: in vivo
runConditions: lidocaine = 1
Threshold check on DL50 i.p. relative to lidocaine: strictly below 1 is true (1); on or above 1 is false (0).

Cc1cccc(C)c1NC(=O)c1ccccc1CN1CCOCC1 [Compound 10] : false (0)
Cc1cccc(C)c1NC(=O)c1cccc(CN2CCCCC2)c1 [Compound 8] : false (0)
Cc1cccc(C)c1NC(=O)c1ccc(CN2CCOCC2)cc1 [Compound 12] : false (0)
Cc1cccc(C)c1NC(=O)c1ccc(CN2CCCCC2)cc1 [Compound 9] : false (0)
CCN(CC)Cc1ccccc1C(=O)Nc1c(C)cccc1Cl [Compound 13] : true (1)
Cc1cccc(C)c1NC(=O)c1cccc(CN2CCOCC2)c1 [Compound 11] : false (0)
Cc1cccc(C)c1NC(=O)c1ccccc1CN1CCCC1 [Compound 4] : true (1)
CCN(CC)Cc1cccc(C(=O)Nc2c(C)cccc2C)c1 [Compound 2] : true (1)
Cc1cccc(C)c1NC(=O)c1ccc(CN2CCCC2)cc1 [Compound 6] : false (0)

----------
Test system: corneal reflux
assayName: Surface anaesthesia (corneal reflux, conjunctival sac)
runConditions: lidocaine = 1
measurementName: Surface anaesthesia activity with respect to lidocaine

Cc1cccc(C)c1NC(=O)c1cccc(CN2CCOCC2)c1 : 0.19
Cc1cccc(C)c1NC(=O)c1cccc(CN2CCCC2)c1 : 0.09
CCN(CC)Cc1cccc(C(=O)Nc2c(C)cccc2C)c1 : 5.60
Cc1cccc(C)c1NC(=O)c1cccc(CN2CCCCC2)c1 : 0.82
Cc1cccc(C)c1NC(=O)c1ccc(CN2CCOCC2)cc1 : 0.82
Cc1cccc(C)c1NC(=O)c1ccc(CN2CCCCC2)cc1 : 1.20
Cc1cccc(C)c1NC(=O)c1ccc(CN2CCCC2)cc1 : 0.14
CCN(CC)Cc1ccccc1C(=O)Nc1c(C)cccc1Cl : 3.83
Cc1cccc(C)c1NC(=O)c1ccccc1CN1CCCCC1 : 7.66
Cc1cccc(C)c1NC(=O)c1ccccc1CN1CCOCC1 : 0.34
Cc1cccc(C)c1NC(=O)c1ccccc1CN1CCCC1 : 1.24
CCN(CC)Cc1ccccc1C(=O)Nc1c(C)cccc1C : 4.60
CCN(CC)Cc1ccccc1C(=O)Nc1c(C)cccc1C(=O)OC : 5.61
CCN(CC)Cc1ccc(C(=O)Nc2c(C)cccc2C)cc1 : 0.48
